system: E. faecalis 29212; assay: MIC, agar incorporation method; format: cell-based, Enterococcus faecalis; details: E. faecalis 29212; agar incorporation
Listing of entries alongside the reported MIC.
Readout Type: MIC (µg/mL)

INSERT INTO results (compound, obs_value) VALUES
  ('CC(=O)NC[C@H]1CN(c2ccc(N3CCN(Cc4ccc([N+](=O)[O-])o4)CC3)c(F)c2)C(=O)O1.O=C(O)CC(O)(CC(=O)O)C(=O)O', 2),
  ('CC(=O)NC[C@H]1CN(c2ccc(N3CC4C(C3)C4N(C)C(=O)c3ccoc3)c(F)c2)C(=O)O1 (stereo partly drawn)', 8),
  ('CC(=O)NC[C@H]1CN(c2ccc(N3CCN(C(=O)c4ccc(CCl)o4)CC3)c(F)c2)C(=O)O1', 8);

====

system: S. pneum 6303; experiment: MIC, agar incorporation method; format: cell-based, Streptococcus pneumoniae; details: S. pneum 6303; agar incorporation
TRUE if MIC is below 2 µg/mL. FALSE if not; exact matches included in FALSE.

INSERT INTO assay_data (molecule, qualitative_label) VALUES
  ('CC(=O)NC[C@H]1CN(c2ccc(N3CCN(Cc4cc(Br)cs4)CC3)c(F)c2)C(=O)O1', 'FALSE'),
  ('CC(=O)NC[C@H]1CN(c2ccc(N3CCN(Cc4ccc(Cl)s4)CC3)c(F)c2)C(=O)O1', 'FALSE'),
  ('CC(=O)NC[C@H]1CN(c2ccc(N3CCN(C(=O)c4ccc([N+](=O)[O-])s4)CC3)c(F)c2)C(=O)O1.Cl', 'TRUE'),
  ('CC(=O)NC[C@H]1CN(c2ccc(N3CCN(Cc4ccc(C=NO)o4)CC3)c(F)c2)C(=O)O1', 'FALSE'),
  ('CC(=O)NC[C@H]1CN(c2ccc(N3CCN(Cc4ccc([N+](=O)[O-])s4)CC3)c(F)c2)C(=O)O1', 'FALSE'),
  ('CC(=O)NC[C@H]1CN(c2ccc(N3CCN(Cc4cccn4C)CC3)c(F)c2)C(=O)O1', 'TRUE'),
  ('CC(=O)NC[C@H]1CN(c2ccc(N3CCN(Cc4ccc(C5OCCCO5)o4)CC3)c(F)c2)C(=O)O1', 'FALSE'),
  ('CC(=O)NC[C@H]1CN(c2ccc(N3CCC(N(C)Cc4ccc([N+](=O)[O-])o4)CC3)c(F)c2)C(=O)O1', 'TRUE'),
  ('CC(=O)NC[C@H]1CN(c2ccc(N3CC4C(C3)C4N(C)C(=O)c3ccoc3)c(F)c2)C(=O)O1 (stereo partly drawn)', 'FALSE');

====

system: S. pneum 6303; experiment: MIC, agar incorporation method; assay type: cell-based, Streptococcus pneumoniae; conditions: S. pneum 6303; agar incorporation
Readout Type: MIC (µg/mL)

INSERT INTO measurements (compound, target_under_test, readout_type, obs_value) VALUES
  ('CC(=O)NC[C@H]1CN(c2ccc(N3CCN(C(=O)c4ccc([N+](=O)[O-])o4)CC3)c(F)c2)C(=O)O1 [Compound No. 06]', 'S. pneum 6303', 'MIC', 2),
  ('CC(=O)NC[C@H]1CN(c2ccc(N3CCN(C(=O)c4ccoc4)CC3)c(F)c2)C(=O)O1 [Compound No. 08]', 'S. pneum 6303', 'MIC', 2),
  ('CC(=O)NC[C@H]1CN(c2ccc(N3CCN(C(=O)c4ccco4)CC3)c(F)c2)C(=O)O1 [Compound No. 01]', 'S. pneum 6303', 'MIC', 2);
